Hey, just so you know, these numbers are from PubChem BioAssay.

Quick reference: inhibition of the listed items.
Assay: 384-well plate pilot, post-Golgi transport modulator project, inhibition of yeast transport mutant growth (AID 636)
Settings: absorbance 615 nm, about 18 h, stronger effect = higher value
// units = %; emit number, no label

Some solved cases for reference:
CCCOc1ccc(C2c3c(oc4ccccc4c3=O)C(=O)N2CCCN2CCOCC2)cc1 (stereo unspecified) | -3.73
CCOc1ccc2c(c1)sc1nc(C(=O)OC)cc(=O)n12 | -6.49
CCC(=O)N(CCCN(C)C)c1nc(-c2cc(OC)ccc2OC)cs1 | -5.2
CC(NC(=O)COc1ccccc1)C(=O)NC1=NCCS1 (stereo unspecified) | -4.36
CCOC(=O)N1CCC(NC(=O)CSCc2nc(-c3cccc(OC)c3)oc2C)CC1 | -2

Could you tell me which inhibition is on file for COc1ccc(C(=O)NCCn2ccc3ccccc32)cc1 ?
-5.6

Another compound to check: Cc1csc(NC(=O)CCCSc2nc3ccccc3s2)n1
-5.87

Another compound to check: Cc1cc(NC(=O)c2cc3ccccc3o2)cc(C)c1OCC(=O)N1CCOCC1
-6.89

Another compound to check: O=C(NC1CCCc2ccccc21)C1CCN(S(=O)(=O)c2cnc[nH]2)CC1 (stereo unspecified)
-0.79

Another compound to check: CCCCn1nnnc1SCC(=O)N1CCN(C(=O)c2ccco2)CC1
-6.71

Another compound to check: Cc1cccc(C(OC(=O)c2ccco2)C(=O)NCc2ccccc2)n1 (stereo unspecified)
-2.03

###

Biological target: Receptor tyrosine-protein kinase erbB-2 (Homo sapiens)
Assay: reducers of endogenous Her2 protein level, primary screen, SKBR3 breast tumor cells, AlphaScreen, ATP viability (AID 461);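 as to Her2 level: lower value means less Her2 protein in the cells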;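 as to viability: percent of carrier control wells set as 100% viability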
Details: 18-24 h, at 10 µM, stronger effect = lower value
Quick reference: Her2 level of the listed items.
// units = %; emit number, no label

COCCNc1oc(-c2ccc(C)cc2)nc1C#N | 81
CCN(CC)CCNC(=O)CCn1c(=S)[nH]c2cc3c(cc2c1=O)OCO3 | 89.5
O=C(Oc1ccc2c(c1)CCC2)N1CCOCC1 | 144
CC1CCN(S(=O)(=O)c2cn(CC(=O)N3CCN(C)CC3)c(=O)c3ccccc23)CC1 | 97
O=C(OCC(=O)c1cccs1)C1=COCCO1 | 102

Could you tell me which Her2 level is on file for COc1ccc(C2=Nn3c(nnc3-c3cccnc3)SC2)cc1 ?
93.5

Another compound to check: Clc1ccc(SCCn2ccnc2)cc1
96

Another compound to check: Cc1nc2sc(C(c3ccc(Br)cc3)N3CC(C)OC(C)C3)c(O)n2n1 (centres undefined)
112

Another compound to check: O=C(NCc1ccc2c(c1)OCO2)C1CCCN(S(=O)(=O)c2cccnc2)C1 (centres undefined)
102

Another compound to check: N#CCCCCn1c(-c2cncs2)nc2ccccc21
126

Another compound to check: O=C(NC1CCCC1)c1c[nH]c2ccc(F)cc2c1=O
90.5

Another compound to check: O=C(NCCN1CCOCC1)c1ccc2c(c1)N(Cc1ccccc1)C(=O)CS2
111

Another compound to check: CC(=O)Nc1cccc(OCC(O)Cn2cnc3ccccc32)c1 (centres undefined)
110

Another compound to check: CC(C)OC(=O)CSc1nnc(-c2ccco2)n1N
112

###

Test: reducers of endogenous Her2 protein level, primary screen, SKBR3 breast tumor cells, AlphaScreen, ATP viability (AID 461);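 as to viability: percent of carrier control wells set as 100% viability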
Conditions: 18-24 h, measured here: SKBR3 viability, ATP luminescence, at 10 µM
Quick reference: viability of the listed items.
// units = %; emit number, no label

Some solved cases for reference:
CCC(c1nnnn1Cc1ccco1)N(CCc1ccccc1)Cc1cc2cccc(C)c2[nH]c1=O (stereo not drawn) | 105
CCOC(=O)Nc1sc(=S)n(C)c1C | 92.5
Cc1ccc(CNC(=O)CSc2n[nH]c(N)n2)cc1 | 100
Cc1cc(NC(=O)CSc2nnc(COc3cccc(C)c3C)n2Cc2ccco2)no1 | 102
COc1ccc(/C(O)=C2/C(=O)C(=O)N(CCCN(C)C)C2c2ccco2)cc1Cl (stereo not drawn) | 104
COc1ccc(C)cc1NC(=O)c1nnn(Cc2cccc(F)c2)c1N | 85.5
COc1cccc(OCc2nc3c4cnn(-c5ccccc5)c4ncn3n2)c1 | 97.5
COCCNc1oc(-c2ccc(C)cc2)nc1C#N | 102
O=S(=O)(c1cccc(-c2nnco2)c1)N1CCCC1 | 100
O=C(COC(=O)CCC(=O)c1cccs1)NCc1ccco1 | 98

Could you tell me which viability is on file for CNC(=O)CC(C(=O)O)c1ccc(OCC(C)C)cc1 (stereo not drawn) ?
90.5

Another compound to check: Cc1nn(-c2ccccc2)c(Cl)c1C(=O)NCC(=O)O
100

Another compound to check: CC(C)=CCCC(C)N(C=O)C(C)CCC=C(C)C (stereo not drawn)
84.5

Another compound to check: COCCNC(=O)CC(NS(=O)(=O)c1ccc(NC(C)=O)cc1)C(C)C (stereo not drawn)
97

Another compound to check: NC(=O)C1(N2CCCCC2)CCN(Cc2ccccc2Cl)CC1
102

Another compound to check: Cc1sc2nc(CN3CCN(S(=O)(=O)c4cccc5nonc45)CC3)[nH]c(=O)c2c1C
102
